The reported measurements were obtained from the supplement of paper PMC10724198.

System: Saccharomyces cerevisiae
Assay: protein stability index of tFT-peptide fusion (C-terminal peptide) (PSI (0-1 scale)); higher = more stable (slower turnover)
Settings: genetic background: wild type; temperature: 30 C
Readout: protein stability index
Number only, no unit.

The examples below pair each entry with its known result.
INSERT INTO assay_data (construct_sequence, assayed_system, value_observed) VALUES
  ('VGVIGWGGLGVG', 'Saccharomyces cerevisiae', 0.485),
  ('DVWEHLHKQHNM', 'Saccharomyces cerevisiae', 0.348);

Ask | Name the value of protein stability index reported for SPTQIPLWILAS when tested on Saccharomyces cerevisiae.
Reply | 0.114

---

Overview of reported protein stability index across a group of sequences:
Tested on: Saccharomyces cerevisiae;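 further: PSI is a weighted mean of sequencing reads over stability bins, variants kept only with over 10 reads, mCherry proximal and sfGFP distal, peptide attached via GGGS linker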
Test: protein stability index of tFT-peptide fusion (C-terminal peptide) (PSI (0-1 scale)); higher = more stable (slower turnover)
Conditions: genetic background: wild type; temperature: 37 C

INSERT INTO results (construct_sequence, value_observed) VALUES
  ('LVLELYRFARFG', 0.532),
  ('FVSVWVFLVSSF', 0.401),
  ('AGMLMCLYLFFV', 0.567);

Ask | Output reported protein stability index of the sequence IVWVSSFVCRSV on Saccharomyces cerevisiae.
Reply | 0.516

Ask | Answer briefly: protein stability index recorded on Saccharomyces cerevisiae for LLVIAIKVPANS
Reply | 0.485
